# Tested on: alkaline phosphatase of Bacillus badius TE3593
# assay_details: Substrate specificity of the alkaline phosphatase of Bacillus badius TE3593
# Type: biochemical
# recorded_conditions: substrate specificity; enzyme of Bacillus badius TE3593; p-nitrophenyl phosphate = 100
experimental_endpoint: Relative Activity

INSERT INTO measurements (compound, experimental_endpoint, test_value) VALUES
  ('O=P(O)(O)OC(CO)CO [β-Glycerophosphate]', 'Relative Activity', 78.1),
  ('O=P(O)(O)OC[C@H]1OC(O)[C@H](O)[C@@H](O)[C@@H]1O (stereo partly drawn) [Glucose-6-phosphate]', 'Relative Activity', 44.3),
  ('O=P(O)(O)OCC(O)CO (racemic) [DL-α-Glycerophosphate]', 'Relative Activity', 71.4),
  ('NC(=O)c1ccc[n+]([C@@H]2O[C@H](COP(=O)([O-])OP(=O)(O)OC[C@H]3O[C@@H](n4cnc5c(N)ncnc54)[C@H](OP(=O)(O)O)[C@@H]3O)[C@@H](O)[C@H]2O)c1', 'Relative Activity', 90.5),
  ('O=P(O)(O)OC1O[C@H](CO)[C@@H](O)[C@H](O)[C@H]1O (stereo partly drawn) [Glucose-1-phosphate]', 'Relative Activity', 1.44),
  ('NCCOP(=O)(O)O', 'Relative Activity', 73.8);
